Hello, the source for this data is the supplement of paper PMC10126150, in case you need it.

Reported switch fluorescence ratio values follow for various sequences
System: ATP;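 also: ATP exposure 15 min at 22 °C before imaging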
test_details: switch fluorescence ratio, 500 uM ATP over buffer (Cy3 cluster intensity, sum of 5 cycles each) (fold (ratio)); higher = stronger signal-on switching upon ATP binding; sequences stand for … in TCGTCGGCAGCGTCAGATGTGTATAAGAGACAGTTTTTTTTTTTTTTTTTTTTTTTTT…TC
condition_label: aptamer strand: ATP DNA aptamer (quencher-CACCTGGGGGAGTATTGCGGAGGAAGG + anchor), 100 nM annealed; ATP concentration: 500 uM
The answer should be written as a number, with no unit following it.

Answered examples (6):
residue_sequence=TAACACCTCT value_reported=0.988
residue_sequence=GCTAGGGTTT value_reported=0.965
residue_sequence=TTTATTCCTT value_reported=1.02
residue_sequence=ACTGATCTGA value_reported=0.987
residue_sequence=GGAAAAAGGT value_reported=1.05
residue_sequence=GCAATGAACC value_reported=1.84

Then there is this sequence:
Data request: Form entry - test system: ATP; read-out: switch fluorescence ratio; sequence: `AAGGAAGTTT`;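 also: ATP exposure 15 min at 22 °C before imaging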
Data returned: 1.06
